System: LPS-stimulated human PBMCs
Test: LPS-induced TNF-α production in human PBMCs
Type: cell-based
Settings: PBMC, read-out: IC50 on LPS-induced production of TNF-α
ENDPOINT_LABEL: pIC50
Hey, just a heads up that pIC50 is the negative log base 10 of the concentration in molar.

Task item: # pIC50 lookup, item `COc1cc(C[C@H]2C(=O)OC[C@@H]2Cc2ccc(OC)c(OC)c2)ccc1O`
Reply: 4.45
